Provenance of the data: ChEMBL document CHEMBL3124756

Reported remaining at 10 min values for a set of compounds
- Measurement Notes: Metabolic stability in human liver microsomes assessed as compound remaining after 10 mins
- Type: ADME
- Measurement Context: read-out: Stability
// return numeric value only (unit: %, not printed)

{"Mol": "CN(C)[C@@H](C(=O)N1CCC[C@H]1c1ncc(-c2ccc(-c3ccc(-c4cnc([C@@H]5CCCN5C(=O)[C@@H](c5ccccc5)N(C)C)[nH]4)cc3)cc2)[nH]1)c1ccccc1", "Units": "%", "remaining at 10 min": 100}

Let's switch to this compound now.
Ask: Supply reported remaining at 10 min belonging to this compound: `COC(=O)N[C@@H](C(=O)N1CCC[C@H]1c1ncc(-c2ccc(-c3ccc(-c4cnc([C@@H]5CCCN5C(=O)[C@H](NC(=O)OC)c5ccccc5)[nH]4)cc3)cc2)[nH]1)c1ccccc1`
Reply: 100

###

- Measurement Notes: Efflux ratio of permeability from basolateral to apical side over apical to basolateral side in human Caco2 cells
- Format: ADME, cell-based
- Measurement Context: Caco-2
Result Type: efflux ratio

Ask: Consider the compound `COC(=O)N[C@@H](C(=O)N1CCC[C@H]1c1nc2cc(C#Cc3ccc4[nH]c([C@@H]5CCCN5C(=O)[C@H](NC(=O)OC)c5ccccc5)nc4c3)ccc2[nH]1)c1ccccc1` . State its measured efflux ratio.
Reply: ≥ 7.2

###

- System: Hepatitis C virus
- Measurement Notes: Antiviral activity against Hepatitis C virus genotype 3a infected in human HuH7 cells by FRET assay
- Type: functional, organism-based, Hepacivirus hominis
- Measurement Context: Huh-7
Result Type: EC50 (pM)
Give just the numeric value; pM need not be written.

{"Mol": "CN(C)[C@@H](C(=O)N1CCC[C@H]1c1ncc(-c2ccc(-c3ccc(-c4cnc([C@@H]5CCCN5C(=O)[C@@H](c5ccccc5)N(C)C)[nH]4)cc3)cc2)[nH]1)c1ccccc1", "Units": "pM", "EC50": 15}

Ask: State its EC50 for this compound: `COC(=O)N[C@@H](C(=O)N1CCC[C@H]1c1ncc(-c2ccc(-c3ccc(-c4cnc([C@@H]5CCCN5C(=O)[C@H](NC(=O)OC)c5ccccc5)[nH]4)cc3)cc2)[nH]1)c1ccccc1`
Reply: 4

###

- Measurement Notes: Cytotoxicity against human HuH7 cells infected with HCV genotype 1b after 72 hrs by Alamar blue assay
- Assay type: cell-based, Huh-7
Result Type: CC50 at 72 h (µM)
Number in µM, nothing else.

{"Mol": "CN(C)[C@@H](C(=O)N1CCC[C@H]1c1nc2cc(C#Cc3ccc4oc([C@@H]5CCCN5C(=O)[C@@H](c5ccccc5)N(C)C)nc4c3)ccc2o1)c1ccccc1", "Units": "µM", "CC50 at 72 h": 4.45}

Ask: Specify measured CC50 at 72 h for `CN(C)[C@@H](C(=O)N1CCC[C@H]1c1nc2cc(C#Cc3ccc4[nH]c([C@@H]5CCCN5C(=O)[C@@H](c5ccccc5)N(C)C)nc4c3)ccc2[nH]1)c1ccccc1` .
Reply: 6.39

Ask: Provide measured CC50 at 72 h value, entry: `CN(C)[C@@H](C(=O)N1CCC[C@H]1c1ncc(-c2ccc(-c3ccc(-c4cnc([C@@H]5CCCN5C(=O)[C@@H](c5ccccc5)N(C)C)[nH]4)cc3)cc2)[nH]1)c1ccccc1`
Reply: 5.86

Ask: Return reported CC50 at 72 h. Input compound: `CN(C)[C@@H](C(=O)N1CCC[C@H]1C(=O)Nc1cccc(-c2cnc(-c3cccc(NC(=O)[C@@H]4CCCN4C(=O)[C@@H](c4ccccc4)N(C)C)c3)o2)c1)c1ccccc1`
Reply: 4.73

Ask: Read off the recorded CC50 at 72 h for `CN(C)[C@@H](C(=O)N1CCC[C@H]1C(=O)Nc1ccc(-c2cnc(-c3ccc(NC(=O)[C@@H]4CCCN4C(=O)[C@@H](c4ccccc4)N(C)C)cc3)o2)cc1)c1ccccc1`
Reply: 6.01

Ask: Read off the recorded CC50 at 72 h for `CN(C)[C@@H](C(=O)N1CCC[C@H]1c1nc2ccc(C#Cc3ccc4nc([C@@H]5CCCN5C(=O)[C@@H](c5ccccc5)N(C)C)oc4c3)cc2o1)c1ccccc1`
Reply: 2.72

###

- Measurement Notes: Plasma concentration in rat at 5 mg/kg, po after 0.17 hrs
- Type: ADME, organism-based
- Design: dose 5 mg/kg, route oral
Result Type: concentration at 0.17 h (nM)
Express the result in nM but write the number alone.

Ask: Please indicate concentration at 0.17 h recorded for `CN(C)[C@@H](C(=O)N1CCC[C@H]1c1ncc(-c2ccc(-c3ccc(-c4cnc([C@@H]5CCCN5C(=O)[C@@H](c5ccccc5)N(C)C)[nH]4)cc3)cc2)[nH]1)c1ccccc1`
Reply: 20

###

- Measurement Notes: Metabolic stability in rat microsomes assessed as compound remaining after 10 mins
- Type: ADME, microsome
- Measurement Context: liver microsomes, read-out: Stability
Result Type: remaining at 10 min

{"Mol": "COC(=O)N[C@@H](C(=O)N1CCC[C@H]1c1ncc(-c2ccc(-c3ccc(-c4cnc([C@@H]5CCCN5C(=O)[C@H](NC(=O)OC)c5ccccc5)[nH]4)cc3)cc2)[nH]1)c1ccccc1", "remaining at 10 min": "100%"}

// next entry
Ask: Return value of remaining at 10 min for input `CN(C)[C@@H](C(=O)N1CCC[C@H]1c1ncc(-c2ccc(-c3ccc(-c4cnc([C@@H]5CCCN5C(=O)[C@@H](c5ccccc5)N(C)C)[nH]4)cc3)cc2)[nH]1)c1ccccc1` , no commentary.
Reply: 100%

###

- Measurement Notes: AUC (24 hrs) in rat at 5 mg/kg, po
- Format: ADME, organism-based
- Design: time < 24 hr, dose 5 mg/kg, route oral
- Measurement Context: plasma
Result Type: AUC at 24 h (µM·h)
# value in µM·h; strip the unit string

Ask: Tell us which AUC at 24 h value is on record for `COC(=O)N[C@@H](C(=O)N1CCC[C@H]1c1nc2cc(C#Cc3ccc4[nH]c([C@@H]5CCCN5C(=O)[C@H](NC(=O)OC)c5ccccc5)nc4c3)ccc2[nH]1)c1ccccc1`
Reply: 0.539

###

- Measurement Notes: Oral bioavailability in rat at 5 mg/kg
- Format: ADME, organism-based
- Measurement Context: in vivo
Result Type: bioavailability

Ask: Give bioavailability for `COC(=O)N[C@@H](C(=O)N1CCC[C@H]1c1nc2cc(C#Cc3ccc4[nH]c([C@@H]5CCCN5C(=O)[C@H](NC(=O)OC)c5ccccc5)nc4c3)ccc2[nH]1)c1ccccc1`
Reply: < 1%

###

- Measurement Notes: Cytotoxicity against human HuH7 cells infected with HCV genotype 1b after 72 hrs by Alamar blue assay
- Type: cell-based, Huh-7
Result Type: CC50 at 72 h

{"Mol": "COC(=O)N[C@@H](C(=O)N1CCC[C@H]1c1ncc(-c2ccc(-c3ccc(-c4cnc([C@@H]5CCCN5C(=O)[C@@H](c5ccccc5)N(C)C)[nH]4)cc3)cc2)[nH]1)c1ccccc1", "CC50 at 72 h": "> 9.7 µM"}
{"Mol": "COC(=O)N[C@@H](C(=O)N1CCC[C@H]1c1ncc(-c2ccc(-c3ccc(-c4cnc([C@@H]5CCCN5C(=O)OC(C)(C)C)[nH]4)cc3)cc2)[nH]1)c1ccccc1", "CC50 at 72 h": "> 10 µM"}
{"Mol": "COC(=O)N[C@@H](C(=O)N1CCC[C@H]1c1ncc(-c2ccc(-c3ccc(-c4cnc([C@@H]5CCCN5C(=O)[C@H](NC(=O)OC)c5ccccc5)[nH]4)cc3)cc2)[nH]1)c1ccccc1", "CC50 at 72 h": "> 10 µM"}

Ask: Quick one: give measured CC50 at 72 h for `O=C(Cc1ccccc1)N1CCC[C@H]1c1nc2cc(C#Cc3ccc4oc([C@@H]5CCCN5C(=O)Cc5ccccc5)nc4c3)ccc2o1`
Reply: > 10 µM

Ask: Consider the molecule `O=C(Cc1ccccc1)N1CCC[C@H]1c1ncc(-c2ccc(-c3ccc(-c4cnc([C@@H]5CCCN5C(=O)Cc5ccccc5)[nH]4)cc3)cc2)[nH]1` . State its measured CC50 at 72 h.
Reply: > 10 µM
